From: patent US6545032B1

- target_or_system: mu opiate receptor (Rattus norvegicus)
- Construct: from tissue; host or cells: rat brain membranes/homogenate
- Sequence (P33535 whole entry): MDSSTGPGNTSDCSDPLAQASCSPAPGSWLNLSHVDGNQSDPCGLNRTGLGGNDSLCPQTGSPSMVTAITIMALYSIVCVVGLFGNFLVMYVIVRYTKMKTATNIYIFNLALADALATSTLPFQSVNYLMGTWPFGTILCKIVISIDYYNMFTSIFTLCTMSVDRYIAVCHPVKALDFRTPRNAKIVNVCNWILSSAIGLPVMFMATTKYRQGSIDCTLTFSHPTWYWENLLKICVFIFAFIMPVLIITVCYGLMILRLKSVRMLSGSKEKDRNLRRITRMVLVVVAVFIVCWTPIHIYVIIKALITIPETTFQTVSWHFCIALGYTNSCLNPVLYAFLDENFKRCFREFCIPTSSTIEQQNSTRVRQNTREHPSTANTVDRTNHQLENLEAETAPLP
- procedure_details: Inhibition of [3H]DAMGO binding to the mu opiate receptor in rat brain homogenates
- study_conditions: mean minus non-specific binding; 0.08 mg of compound per milliliter, 7 nM 3H-labeled DAMGO, rat brain membranes
Minus NSB* overview
When you answer, write just the number.

# compound, endpoint_label, observed
measured = [
    ("CC(C)c1nc(Cc2ccc(F)cc2)n2c1NC(=O)C2C(C)C (racemic) [Pool 75]", "Minus NSB*", 450.20),
    ("CC(C)c1nc(C(C)(C)C)n2c1NC(=O)C2C(C)C (stereo not drawn) [Pool 135]", "Minus NSB*", 623.85),
]

COc1cccc(Cc2nc(C(C)C)c3n2C(C(C)C)C(=O)N3)c1 (racemic) [Pool 76] yielded Minus NSB* of 546.00

CC1CCC(Cc2nc(C(C)C)c3n2C(C(C)C)C(=O)N3)CC1 (stereo not drawn) [Pool 152] yielded Minus NSB* of 462.10

CC(C)c1nc(C(C2CCCCC2)C2CCCCC2)n2c1NC(=O)C2C(C)C (stereo not drawn) [Pool 139] yielded Minus NSB* of 620.85

Cc1nc(C)n2c1NC(=O)C2C(C)C (stereo not drawn) [Pool 51] yielded Minus NSB* of 594.75

Cc1ncc2n1C(C(C)C)C(=O)N2 (stereo not drawn) [Pool 34] yielded Minus NSB* of 648.40

Cc1ccc(Cc2nc(C(C)C)c3n2C(C(C)C)C(=O)N3)cc1 (racemic) [Pool 74] yielded Minus NSB* of 550.65

CC(C)c1nc(Cc2ccc(Cl)c(Cl)c2)n2c1NC(=O)C2C(C)C (racemic) [Pool 81] yielded Minus NSB* of 680.30

CCC(c1ccccc1)c1nc(C(C)C)c2n1C(C(C)C)C(=O)N2 (mixture of isomers) [Pool 68] yielded Minus NSB* of 627.45

Cc1nc(CC(C)C)c2n1C(C(C)C)C(=O)N2 (stereo not drawn) [Pool 37] yielded Minus NSB* of 624.90

CCCCCCc1nc(C(C)C)c2n1C(C(C)C)C(=O)N2 (racemic) [Pool 122] yielded Minus NSB* of 509.30

Cc1nc(CCCNC(=N)N)c2n1C(C(C)C)C(=O)N2 (stereo not drawn) [Pool 42] yielded Minus NSB* of 273.65

Cc1nc(C(C)C)c2n1C(C(C)C)C(=O)N2 (stereo not drawn) [Pool 52] yielded Minus NSB* of 651.85

CCC(C)C1C(=O)Nc2c(C(C)C)nc(C)n21 (stereo not drawn) [Pool 21] yielded Minus NSB* of 525.50

CC(C)c1nc(CC(C)c2ccccc2)n2c1NC(=O)C2C(C)C (mixture of isomers) [Pool 69] yielded Minus NSB* of 592.10

CC(C)c1nc(C(C)C)n2c1NC(=O)C2C(C)C (racemic) [Pool 123] yielded Minus NSB* of 524.50

CC(C)c1nc(CC23CC4CC(CC(C4)C2)C3)n2c1NC(=O)C2C(C)C (stereo not drawn) [Pool 156] yielded Minus NSB* of 617.85

CC(C)CCc1nc(C(C)C)c2n1C(C(C)C)C(=O)N2 (stereo not drawn) [Pool 127] yielded Minus NSB* of 601.60

Cc1nc(C(C)C)c2n1C(Cc1ccccc1)C(=O)N2 (stereo not drawn) [Pool 30] yielded Minus NSB* of 621.90

Cc1nc(C(C)C)c2n1C(CC(C)C)C(=O)N2 (stereo not drawn) [Pool 20] yielded Minus NSB* of 479.60
